Attribution: patent US20250351832A1

# Tested on: Helicoverpa armigera
# condition notes: Helicoverpa armigera 3rd instar on chickpea plants; dose 1 ml/gm/lit. spray; 72 hrs; corrected for water control
Assign criterion met to entries whose % Corrected Mortality at 72 Hrs. meets or exceeds 60%; assign criterion not met to the rest.

Here are 10 molecules together with their reported answers.
CC12CCC(CC1=O)C2(C)C (stereo not drawn)
criterion not met
CC1=CCC2CC1C2(C)C (stereo not drawn)
criterion met
O=c1oc2c(O)c(O)cc3c(=O)oc4c(O)c(O)cc1c4c23
criterion met
CC12CCC(CC1)C(C)(C)O2
criterion not met
CC1=CC(=O)C(C(C)C)=CC1=O
criterion not met
CCCCCCCCCCCCCCCC(=O)O
criterion not met
CCCCCCCCCC(C)=O
criterion not met
CC1CCC(C(C)C)C(O)C1 (stereo not drawn)
criterion not met
C=CCc1ccc(OC)cc1
criterion met
Cc1ccc(C(C)C)c(O)c1
criterion met

Exam item: State whether the measured % Corrected Mortality at 72 Hrs. reaches 60%, counting equality as reaching it, for `O=C(/C=C/C=C/c1ccc2c(c1)OCO2)N1CCCCC1`
Marked response: criterion met

Exam item: State whether the measured % Corrected Mortality at 72 Hrs. reaches 60%, counting equality as reaching it, for `Cc1ccc(C(C)C)cc1O`
Marked response: criterion not met
